# System: NCI/ADR-RES ovarian
# Test Name: NCI-60 one-dose screen, 48 h
# Assay Setup: 10 µM unless noted
This is part of a sample that, as a whole, favours compounds with a hit. Of some 83,000 tested, about 20% had one in any assay. Active and inactive are the calls of the source. Rule for the calls: active = growth percent below 10; inactive = the rest.
Return exactly one item of 1 for active, 0 for inactive

Compound: O=C(NCCc1ccccc1)/C(=C\c1ccc(Cl)cc1Cl)NC(=O)c1ccccc1
Assigned Class: 0
//
Compound: O=Cc1ccc(F)cc1
Assigned Class: 0
//
Compound: COC1OC(C(O)C(O)CO)C(O)C(O)C1O (configuration not stated)
Assigned Class: 0
//
Compound: NCCCN1CCCC1=O
Assigned Class: 0
//
Compound: C=CCN1CCCC1=O
Assigned Class: 0
//
Compound: CCOC(C=O)OCC
Assigned Class: 0

Exercise: Status in this test for "Cc1ccc(S(N)(=O)=O)cc1Cl" ?
Key: 0

Exercise: Answer briefly: the call reported for CCN(CC)CCCC(C)NC(=S)N/N=C(\C)c1ccccn1 (configuration not stated) in this assay.
Key: 0

Exercise: Please indicate how the test categorized "ON1CCCC1" .
Key: 0

Exercise: Field: outcome | Entry: NC(CSSCC(N)C(=O)O)C(=O)O (configuration not stated)
Key: 0

Exercise: Please let me know the test result on file for COc1cc2c(c(OC)c1OC)-c1ccc(SC)c(=O)cc1[C@@H](NC1OC(CO)C(O)C(O)C1O)CC2 (some centres not stated) .
Key: 1

Exercise: Dear colleague, could you share the recorded outcome for CC1CC2C3CCC4=CC(=O)CCC4(C)C3CCC2(C)C1(O)C(=O)CO (configuration not stated) when you have a moment?
Key: 0

Exercise: Recorded test call requested for "N#C/C(=C\c1ccc2c(c1)OCO2)c1ccccc1"
Key: 0

Exercise: Which outcome was assigned to "Cc1ccc2[nH]c3ccccc3c2c1" in this test?
Key: 0

Exercise: GET /call?item= "Cc1ccc(N2C(=O)c3cccc4c(N)c(S(=O)(=O)O)cc(c34)C2=O)cc1" returns the recorded outcome of this test.
Key: 0

Exercise: Record lookup: outcome of this test for CCC(C)c1c(N)n(S(=O)(=O)c2ccc(C)cc2)oc1=O (configuration not stated) ?
Key: 0

Exercise: Kindly provide the recorded test outcome for the following compound: "BrCc1cccc(C[P+](c2ccccc2)(c2ccccc2)c2ccccc2)c1"
Key: 0

Exercise: What was the test verdict on "Clc1ccc(-c2noc(/C=C\c3ccccc3)n2)cc1" ?
Key: 0

Exercise: Short answer needed: outcome of this test for "NC(CCl)=NCC12CC3CC(CC(C3)C1)C2" ?
Key: 1

Exercise: Could you check what this test reported for "Oc1cc(O)c2c(c1)O[C@H](c1ccc(O)c(O)c1)[C@@H](O)C2" ?
Key: 0

Exercise: Can you look up the reported call for COC1OC(COC(C)=O)C(OC(C)=O)C(OC(C)=O)C1OC(C)=O (configuration not stated) for me?
Key: 0

Exercise: Dear colleague, could you share the recorded outcome for "O=C(NC1CCCCC1)c1ccc(Cl)cc1" when you have a moment?
Key: 0

* * *

# System: UACC-257 melanoma
# Test Name: NCI-60 one-dose screen, 48 h
# Assay Setup: 10 µM unless noted
This is part of a sample that, as a whole, favours compounds with a hit. Of some 83,000 tested, about 20% had one in any assay. Calls of active or inactive are those of the source. How the source made its calls: active means growth percent below 10; inactive means the rest.
Write down one outcome, taken from true (1) (active), false (0) (inactive)

Compound: NC(=O)OCCO
Assigned Class: false (0)
--
Compound: Nc1c(O)c(S(=O)(=O)O)c(O)c2c1C(=O)c1ccccc1C2=O
Assigned Class: true (1)
--
Compound: C=COC(=O)C(C)(C)C
Assigned Class: false (0)
--
Compound: CCOC(=N)CC(=O)Nc1cccc(C)c1Cl
Assigned Class: false (0)
--
Compound: CN1CCCN(C(c2ccccc2)c2ccc(Br)cc2)CC1 (centres undefined)
Assigned Class: false (0)
--
Compound: CS(=O)CC(=N\O)/C(CS(C)=O)=N\O (centres undefined)
Assigned Class: false (0)
--
Compound: Nc1ccccc1SC1CC(=O)N(c2ccc(Cl)c(Cl)c2)C1=O (centres undefined)
Assigned Class: true (1)
--
Compound: O=S(=O)(O)c1ccc(O)c(C2CCCCC2)c1
Assigned Class: false (0)
--
Compound: O=C(O)CC1=CCCCC1
Assigned Class: false (0)
--
Compound: NC(=O)c1cc2c3ccccc3ccn2c1-c1ccccc1
Assigned Class: false (0)

Next:
Exercise: Assay result, entry COC1CC(OC(=O)c2ccc([N+](=O)[O-])cc2)C(COC(=O)c2ccc([N+](=O)[O-])cc2)O1 (centres undefined) — outcome?
Key: false (0)

These data points were gathered from PubChem BioAssay (NCI).
